Measured IC50 of individual entries
Biological target: KRAS G12D/RAF1 (Homo sapiens, UniProt P01116, G12D)
Construct: KRAS (1-169) proteins were expressed in BL21 (DE3)-CodonPlus E. coli; His6-MBP (N, cleaved yes)
Sequence (P01116 with tags, fused parts or gaps isoform P01116-2 G12D): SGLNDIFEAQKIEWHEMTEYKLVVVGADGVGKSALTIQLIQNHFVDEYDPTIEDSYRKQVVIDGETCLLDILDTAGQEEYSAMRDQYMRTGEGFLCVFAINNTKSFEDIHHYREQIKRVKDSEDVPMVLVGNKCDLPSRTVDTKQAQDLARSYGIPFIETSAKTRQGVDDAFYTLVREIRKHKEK
Experiment: Protein-protein interaction (PPI) HTRF assay KRAS G12D/RAF1
Assay type: binding
Details: Table 2
Text: When RAS proteins are in the active GTP-bound conformation, they bind the effector protein RAF1 at the N-terminus Ras-binding domain (RBD, residues 52-131) (Tran, et al., 2021). Homogenous time resolved fluorescence (HTRF) was used to monitor the interaction between wt or mutant KRAS and RAF1 or wt NRAS and RAF1. […] The intensity of the fluorescence signal emitted is proportional to binding between the two proteins. […]

INSERT INTO results (molecule, assay_system, quantity_name, test_result) VALUES
  ('N#Cc1c(N)sc2c1C1(CC2)CCN(c2nc(OCC3(CN4CCOCC4)CC3)nc(N3C[C@H]4CC[C@@H](C3)N4)n2)C1 (stereo partly shown)', 'KRAS G12D/RAF1 (Homo sapiens, UniProt P01116, G12D)', 'IC50', '1 to 10 µM'),
  ('CC(C#N)COc1nc(OC[C@@]23CCCN2C[C@H](F)C3)nc(N2CC3(CCc4sc(N)c(C#N)c43)C2)n1 (stereo partly shown)', 'KRAS G12D/RAF1 (Homo sapiens, UniProt P01116, G12D)', 'IC50', '10 to 100 µM'),
  ('C[C@@]1(O)CCCN(c2nc(OC[C@@]34CCCN3C[C@H](F)C4)nc(N3CC4(CCc5sc(N)c(C#N)c54)C3)n2)C1', 'KRAS G12D/RAF1 (Homo sapiens, UniProt P01116, G12D)', 'IC50', '1 to 10 µM'),
  ('N#Cc1c(N)sc2c1C1(CC2)CN(c2nc(OCC3(CN4CCOCC4)CC3)nc(N3C[C@H]4CC[C@@H](C3)N4)n2)C1', 'KRAS G12D/RAF1 (Homo sapiens, UniProt P01116, G12D)', 'IC50', '1 to 10 µM');

Problem: Please look at this molecule and report its IC50: `N#Cc1c(N)sc2c1C1(CC2)CN(c2nc(OC[C@@]34CCCN3C[C@H](F)C4)nc(N3CCC[C@@H](CO)C3)n2)C1`
Result: 10 to 100 µM

Problem: Please look at this molecule and report its IC50: `N#Cc1c(N)sc2c1C1(CCC2)CN(c2nc(OCC3(CN4CCOCC4)CC3)nc(N3C[C@H]4CC[C@@H](C3)N4)n2)C1`
Result: 1 to 10 µM

Problem: Please look at this molecule and report its IC50: `CN(C)C(=O)c1nn2c(c1Cl)CN(c1nc(OC[C@@]34CCCN3C[C@H](F)C4)nc(N3CC4(CCc5sc(N)c(C#N)c54)C3)n1)CCC2`
Result: 10 to 100 µM

###

Molecular target: GST-tagged KRAS-G12V (2-169) (Homo sapiens, UniProt P01116, G12V)
Sequence (P01116 2-169 isoform P01116-2 G12V): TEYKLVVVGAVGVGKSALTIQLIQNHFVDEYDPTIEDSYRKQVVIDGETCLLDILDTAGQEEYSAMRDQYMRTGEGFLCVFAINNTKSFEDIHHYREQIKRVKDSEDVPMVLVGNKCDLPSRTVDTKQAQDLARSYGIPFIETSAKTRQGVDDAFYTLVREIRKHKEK
Assay: Nucleotide exchange assay (NEA), SOS-mediated, HTRF, KRAS G12V
Conditions: Table 4; IC50 extracted at 90 min; 80 nM SOS
quantity-name: IC50

INSERT INTO measurements (compound, test_result) VALUES
  ('CC(c1c[nH]nn1)N(CC#N)c1nc(OC[C@@]23CCCN2C[C@H](F)C3)nc(N2CC3(C2)SCc2sc(N)c(C#N)c23)n1 (stereo partly shown) [Compound 250]', '< 10 nM'),
  ('CC(c1ccc[n+]([O-])c1)N(C)c1nc(OC[C@@]23CCCN2C[C@H](F)C3)nc(N2CC3(C2)SCc2sc(N)c(C#N)c23)n1 (stereo partly shown) [Compound 224]', '10 to 100 nM'),
  ('C[C@]1(CO)C[C@H](O)CN1c1nc(OC[C@@]23CCCN2C[C@H](F)C3)nc(N2CC3(CCc4sc(N)c(C#N)c43)C2)n1 [Compound 72]', '100 to 1000 nM'),
  ('CC(c1cncnc1N)N(C)c1nc(OC[C@@]23CCCN2C[C@H](F)C3)nc(N2CC3(CCc4sc(N)c(C#N)c43)C2)n1 (stereo partly shown) [Compound 108]', '< 10 nM'),
  ('C[C@H](c1ccc(P(C)(C)=O)nc1N)N(C)c1nc(OC[C@@]23CCCN2C[C@H](F)C3)nc(N2CC3(C2)SCc2sc(N)c(C#N)c23)n1 [Compound 232]', '100 to 1000 nM');

Problem: Please look at this compound and report its IC50: C[C@@]1(O)CCCN(c2nc(OCC3(CN4CCOCC4)CC3)nc(N3CC4(C3)c3c(sc(N)c3C#N)CC4F)n2)C1 (stereo partly shown) [Compound 61]
Result: 10 to 100 nM

Problem: Please look at this compound and report its IC50: N#Cc1c(N)sc2c1C1(CN(c3nc(OC[C@@]45CCCN4C[C@H](F)C5)nc(Oc4cn[nH]c4)n3)C1)SC2 [Compound 164]
Result: 10 to 100 nM

Problem: Please look at this compound and report its IC50: N#Cc1c(N)sc2c1C1(CC2)CN(c2nc(OC[C@@]34CCCN3C[C@H](F)C4)nc(N3CCc4n[nH]c(N)c4C3)n2)C1 [Compound 35]
Result: 1000 to 20000 nM

Problem: Please look at this compound and report its IC50: CCN(c1nc(OCCN2CCCCC2)nc(N2CC3(C2)SCc2sc(N)c(C#N)c23)n1)[C@H](C)c1cccnc1N [Compound 178]
Result: < 10 nM

Problem: Please look at this compound and report its IC50: C[C@@]1(O)CCCN(c2nc(OCC3(CN4CCOCC4)CC3)nc(N3CC4(C3)SCc3sc(N)c(C#N)c34)n2)C1 [Compound 73]
Result: < 10 nM

Problem: Please look at this compound and report its IC50: C[C@@]1(O)CCCN(c2nc(OC[C@@]34CCCN3C[C@H](F)C4)nc(N3CC4(CCc5sc(N)c(C#N)c54)C3)n2)C1 [Compound 10]
Result: < 10 nM

Problem: Please look at this compound and report its IC50: CC(c1cccnc1N)N(C)c1nc(OC[C@@]23CCCN2C[C@H](F)C3)nc(N2CC3(CCc4sc(N)c(C#N)c43)C2)n1 (single isomer, unassigned) [Compound 100B]
Result: < 10 nM

Problem: Please look at this compound and report its IC50: N#Cc1c(N)sc2c1C1(CC2)CN(c2nc(OC[C@@]34CCCN3C[C@H](F)C4)nc(N3CCCCC(C#N)C3)n2)C1 (stereo partly shown) [Compound 74]
Result: < 10 nM
